I'd be grateful if you could share measured Ratio for these entries.
Molecular target: Inhibitor of nuclear factor kappa-B kinase subunit beta (Homo sapiens) (UniProt O14920)
Sequence (O14920 whole entry): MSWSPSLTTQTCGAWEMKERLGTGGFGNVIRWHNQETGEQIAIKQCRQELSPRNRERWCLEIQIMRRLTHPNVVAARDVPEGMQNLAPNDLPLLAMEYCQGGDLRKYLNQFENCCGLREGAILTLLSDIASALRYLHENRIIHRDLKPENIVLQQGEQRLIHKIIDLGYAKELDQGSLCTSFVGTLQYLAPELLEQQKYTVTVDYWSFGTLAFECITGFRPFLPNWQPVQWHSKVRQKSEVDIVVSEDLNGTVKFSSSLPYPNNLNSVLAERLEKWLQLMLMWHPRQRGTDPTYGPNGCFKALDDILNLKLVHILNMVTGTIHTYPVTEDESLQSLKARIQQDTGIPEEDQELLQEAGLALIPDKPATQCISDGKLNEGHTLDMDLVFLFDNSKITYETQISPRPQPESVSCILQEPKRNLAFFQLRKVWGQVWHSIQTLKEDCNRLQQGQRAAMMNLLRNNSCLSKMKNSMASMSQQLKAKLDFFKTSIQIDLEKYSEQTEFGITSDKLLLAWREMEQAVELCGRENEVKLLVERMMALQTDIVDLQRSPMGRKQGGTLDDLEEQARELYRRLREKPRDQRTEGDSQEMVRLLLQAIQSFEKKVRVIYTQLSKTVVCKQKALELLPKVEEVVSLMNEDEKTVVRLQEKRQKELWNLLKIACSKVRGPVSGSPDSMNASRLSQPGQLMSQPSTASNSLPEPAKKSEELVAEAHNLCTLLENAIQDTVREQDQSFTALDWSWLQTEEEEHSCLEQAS
Experiment: Ratio of inhibitory concentration of rheumatoid arthritis-derived synovial fibroblasts to human recombinant I-kappa-B-kinase 2
Assay type: functional
Write the number on its own, no unit after it.

Query: API: value(readout= Ratio, system= Inhibitor of nuclear factor kappa-B kinase subunit beta (Homo sapiens) (UniProt O14920), query= NC(=O)Nc1sc(C#Cc2cccc(O)c2)cc1C(N)=O )
Result: 1.9

Query: API: value(readout= Ratio, system= Inhibitor of nuclear factor kappa-B kinase subunit beta (Homo sapiens) (UniProt O14920), query= NC(=O)Nc1sc(C#Cc2cccc(F)c2)cc1C(N)=O )
Result: 5

Query: API: value(readout= Ratio, system= Inhibitor of nuclear factor kappa-B kinase subunit beta (Homo sapiens) (UniProt O14920), query= NC(=O)Nc1sc(C#CC2CC2)cc1C(N)=O )
Result: 11

Query: API: value(readout= Ratio, system= Inhibitor of nuclear factor kappa-B kinase subunit beta (Homo sapiens) (UniProt O14920), query= NC(=O)Nc1sc(C#Cc2csc(CO)c2)cc1C(N)=O )
Result: 5.8

Query: API: value(readout= Ratio, system= Inhibitor of nuclear factor kappa-B kinase subunit beta (Homo sapiens) (UniProt O14920), query= NC(=O)Nc1sc(C#Cc2ccsc2)cc1C(N)=O )
Result: 2.8

Query: API: value(readout= Ratio, system= Inhibitor of nuclear factor kappa-B kinase subunit beta (Homo sapiens) (UniProt O14920), query= CS(=O)(=O)Nc1cccc(C#Cc2cc(C(N)=O)c(NC(N)=O)s2)c1 )
Result: 28

Query: API: value(readout= Ratio, system= Inhibitor of nuclear factor kappa-B kinase subunit beta (Homo sapiens) (UniProt O14920), query= N#Cc1cc(C#Cc2cc(C(N)=O)c(NC(N)=O)s2)cs1 )
Result: 2.5

---

Target: Inhibitor of nuclear factor kappa-B kinase subunit beta (Homo sapiens, UniProt O14920)
Experiment: Inhibitory concentration against human recombinant I-kappa-B-kinase 2 from 3 experiments
I'd be grateful if you could share measured pIC50 for these entries.
pIC50 field: float, defined as -log10 of concentration (mol/L).

Query: Suppose we examine the compound CCC(O)c1cc(C#Cc2cc(C(N)=O)c(NC(N)=O)s2)cs1 (stereo not drawn) ; what pIC50 value has been reported?
Result: 6.33

Query: Suppose we examine the compound NC(=O)Nc1sc(C#Cc2ccccc2Cl)cc1C(N)=O ; what pIC50 value has been reported?
Result: 6.00

Query: Suppose we examine the compound CN(C)CC(=O)Nc1cccc(C#Cc2cc(C(N)=O)c(NC(N)=O)s2)c1 ; what pIC50 value has been reported?
Result: 5.73
